Numbers sourced from patent US8921376B2.

The following compounds are shown together with reported Ki values.
target_desc: JAK2 (Homo sapiens)
assay: JAK2 inhibition assay (as Example 3 with JAK-2 enzyme)
Format: biochemical
experimental_conditions: Table 6; enzyme inhibition data (Ki)

smiles_record | Ki
CC(=O)c1ccccc1-c1ccnc2[nH]ccc12 | > 5000 nM
CCOC(=O)[C@@H]1[C@@H](C)CCN1C(=O)c1csc(-c2ccnc3[nH]ccc23)n1 | 500 to 5000 nM
O=S(=O)(C1CC1)N1CC[C@@H](Nc2c(Cl)cnc3[nH]ccc23)C1 | < 500 nM
CCCN(CC1CC1)C(=O)c1cc(-c2ccnc3[nH]ccc23)c[nH]1 | < 500 nM
O=C(NCC1CC1)c1csc(-c2ccnc3[nH]ccc23)n1 | < 500 nM
CCCCN(CCC#N)C(=O)c1cc(-c2ccnc3[nH]ccc23)c[nH]1 | < 500 nM
COc1ccc(OC)c(Nc2c(Cl)cnc3[nH]ccc23)c1 | < 500 nM
CCNC(=O)c1ccccc1-c1ccnc2[nH]ccc12 | > 5000 nM
CCNC(=O)c1cccc(-c2ccnc3[nH]ccc23)c1 | 500 to 5000 nM

----------
The following compounds are shown together with reported pKi values.
target_desc: JAK2 (Homo sapiens)
assay: JAK2 inhibition assay (as Example 3 with JAK-2 enzyme)
Assay type: biochemical
experimental_conditions: Table 6; enzyme inhibition data (Ki)
Protocol: Compounds were screened for their ability to inhibit JAK using the assay shown below. Reactions were carried out in a kinase buffer containing 100 mM HEPES (pH 7.4), 1 mM DTT, 10 mM MgCl2, 25 mM NaCl, and 0.01% BSA. […] To each well of a 96 well polycarbonate plate was added 1.5 μl of a candidate JAK3 inhibitor along with 50/1 of kinase buffer containing 2 μM poly(Glu)4Tyr and 10 μM ATP. […] After washing, 60 μl of scintillation fluid was added and ^33P incorporation detected on a Perkin Elmer TopCount. […]
pKi: −log10 of the molar value.

compound | pKi
COCCN(CCOC)C(=O)c1cc(-c2ccnc3[nH]ccc23)c[nH]1 | > 6.30
C#CCN(C)C(=O)c1cc(-c2c(Cl)cnc3[nH]ccc23)c[nH]1 | > 6.30
O=C(NCC(F)(F)F)c1ccccc1-c1ccnc2[nH]ccc12 | < 5.30
CCN(Cc1ccccc1)C(=O)c1csc(-c2ccnc3[nH]ccc23)n1 | > 6.30
N#CCCNC(=O)c1cc(-c2ccnc3[nH]ccc23)c[nH]1 | > 6.30
Nc1ncccc1-c1ccnc2[nH]ccc12 | < 5.30
CC(C)NC(=O)c1cc(-c2ccnc3[nH]ccc23)c[nH]1 | > 6.30
CC(C)CN(CC(C)C)C(=O)c1cc(-c2c(Cl)cnc3[nH]ccc23)c[nH]1 | > 6.30
O=C(c1cc(-c2c(Cl)cnc3[nH]ccc23)c[nH]1)N1CCCC(O)C1 (stereo not drawn) | > 6.30

----------
target_desc: JAK2 (Homo sapiens, UniProt O60674)
Sequence (O60674 whole entry): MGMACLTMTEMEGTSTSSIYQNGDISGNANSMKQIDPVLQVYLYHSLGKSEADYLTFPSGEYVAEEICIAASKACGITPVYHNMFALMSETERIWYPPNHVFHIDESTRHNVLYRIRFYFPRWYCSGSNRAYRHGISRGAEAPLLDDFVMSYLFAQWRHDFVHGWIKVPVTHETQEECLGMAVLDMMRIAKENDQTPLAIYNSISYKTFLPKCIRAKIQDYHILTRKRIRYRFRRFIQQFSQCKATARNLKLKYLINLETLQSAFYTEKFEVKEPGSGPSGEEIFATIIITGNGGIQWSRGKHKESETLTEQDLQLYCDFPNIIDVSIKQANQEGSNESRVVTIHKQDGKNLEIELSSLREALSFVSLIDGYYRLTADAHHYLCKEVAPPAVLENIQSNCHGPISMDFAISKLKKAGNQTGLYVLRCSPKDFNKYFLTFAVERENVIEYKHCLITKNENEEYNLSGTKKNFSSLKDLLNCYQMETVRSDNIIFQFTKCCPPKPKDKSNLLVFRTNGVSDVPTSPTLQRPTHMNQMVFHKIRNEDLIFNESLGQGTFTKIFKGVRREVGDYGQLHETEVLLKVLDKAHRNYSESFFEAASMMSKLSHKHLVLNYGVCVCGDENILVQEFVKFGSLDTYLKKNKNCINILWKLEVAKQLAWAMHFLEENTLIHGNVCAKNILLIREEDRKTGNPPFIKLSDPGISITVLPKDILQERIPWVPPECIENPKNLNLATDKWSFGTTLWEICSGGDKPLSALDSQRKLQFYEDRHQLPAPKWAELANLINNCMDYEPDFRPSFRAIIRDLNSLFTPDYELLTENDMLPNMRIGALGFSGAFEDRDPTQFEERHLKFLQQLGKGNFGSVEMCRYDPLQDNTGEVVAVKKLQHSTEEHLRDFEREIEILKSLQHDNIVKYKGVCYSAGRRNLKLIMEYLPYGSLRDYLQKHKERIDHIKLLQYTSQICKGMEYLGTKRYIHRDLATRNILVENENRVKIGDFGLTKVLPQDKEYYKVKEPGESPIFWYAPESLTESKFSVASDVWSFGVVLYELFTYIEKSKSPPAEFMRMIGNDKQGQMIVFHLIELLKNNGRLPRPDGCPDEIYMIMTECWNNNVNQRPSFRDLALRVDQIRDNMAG
assay: JAK2 inhibition assay (as Example 3 with JAK-2 enzyme)
Format: biochemical
experimental_conditions: Table 6; enzyme inhibition data (Ki)
property: Ki

compound | assay_value
CN(C)CCCN(C)C(=O)c1cc(-c2ccnc3[nH]ccc23)c[nH]1 | 500 to 5000 nM
O=C(c1csc(-c2ccnc3[nH]ccc23)n1)N(CCC(F)(F)F)CC1CC1 | < 500 nM
CSc1ccccc1-c1ccnc2[nH]ccc12 | 500 to 5000 nM
CCCNC(=O)c1ccc(-c2ccnc3[nH]ccc23)cc1 | < 500 nM
O=C(CCNc1nc(-c2ccnc3[nH]ccc23)nc2ccccc12)NCC(F)(F)F | 500 to 5000 nM
Fc1ccccc1-c1ccnc2[nH]ccc12 | 500 to 5000 nM
O=C(CC(F)(F)F)N1CC[C@H](Nc2c(Cl)cnc3[nH]ccc23)C1 | < 500 nM
O=C(NC1CC1)c1cc(-c2c(Cl)cnc3[nH]ccc23)c[nH]1 | < 500 nM
Clc1cnc2[nH]ccc2c1-c1cccs1 | < 500 nM
CCCS(=O)(=O)N1CC[C@@H](Nc2c(Cl)cnc3[nH]ccc23)C1 | < 500 nM
Clc1cnc2[nH]ccc2c1-c1ccoc1 | < 500 nM
NC(=O)C1CCCN1C(=O)c1cc(-c2ccnc3[nH]ccc23)c[nH]1 (stereo not shown) | 500 to 5000 nM
CN(CC(F)(F)F)C(=O)c1cc(-c2c(Cl)cnc3[nH]ccc23)c[nH]1 | < 500 nM
CCCCOc1ccccc1-c1ccnc2[nH]ccc12 | > 5000 nM
CCN(CCC#N)C(=O)c1cc(-c2c(Cl)cnc3[nH]ccc23)c[nH]1 | < 500 nM
Clc1cnc2[nH]ccc2c1-c1csc2ccccc12 | < 500 nM
CCOc1ccccc1-c1ccnc2[nH]ccc12 | 500 to 5000 nM
CCCNC(=O)c1cc(-c2c(Cl)cnc3[nH]ccc23)c[nH]1 | < 500 nM
Cc1cccc(C)c1-c1ccnc2[nH]ccc12 | > 5000 nM
